Origin of measurements: ChEMBL document CHEMBL1759880

Examples of molecules with documented MBC follow.
Test system: Escherichia coli
test: Antibacterial activity against Escherichia coli ATCC 25922 after 24 hrs by broth dilution technique
Type: functional
details: ATCC-25922, 24 h

molecule.smiles | value.unit | MBC
CCCCCCCCCCCCCCCC(=O)N(C(=O)NC1CCCCC1)C1CCCCC1 | µg/mL | 100
CCCCCCCC/C=C\CCCCCCCC(=O)N(C(=O)NC1CCCCC1)C1CCCCC1 | µg/mL | 100
CCCCCC[C@@H](O)C/C=C\CCCCCCCC(=O)Nc1ccccc1O | µg/mL | 100
CCCCCCCCCCCCCCCCCC(=O)Nc1ccccc1O | µg/mL | 100
CCCCCC[C@@H](O)C/C=C\CCCCCCCC(=O)N(C(=O)NC1CCCCC1)C1CCCCC1 | µg/mL | 100
CCCCCCCCCCCCCCCC(=O)Nc1ccccc1O | µg/mL | 100
CCCCC/C=C\CC[C@H](O)CCCCCCCC(=O)Nc1ccccc1O | µg/mL | 50
CCCCC/C=C\CC[C@H](O)CCCCCCCC(=O)N(C(=O)NC1CCCCC1)C1CCCCC1 | µg/mL | 100
CCCCCCCC/C=C\CCCCCCCC(=O)Nc1ccccc1O | µg/mL | 100
C=CCCCCCCCCC(=O)N(C(=O)NC1CCCCC1)C1CCCCC1 | µg/mL | 100
CCCCCCCCCCCCCCCCCC(=O)N(C(=O)NC1CCCCC1)C1CCCCC1 | µg/mL | 100

====

System: Klebsiella pneumoniae
test: Antibacterial activity against Klebsiella pneumoniae clinical isolate after 24 hrs by disc diffusion method
Assay type: functional

molecule.smiles | diameter of the inhibition zone (DIZ) (mm)
CCCCC/C=C\CC[C@H](O)CCCCCCCC(=O)Nc1ccccc1O | 17.8
CCCCCCCCCCCCCCCCCC(=O)Nc1ccccc1O | 11.4
CCCCCC[C@@H](O)C/C=C\CCCCCCCC(=O)Nc1ccccc1O | 14.7
CCCCCCCCCCCCCCCC(=O)Nc1ccccc1O | 10.5
CCCCCCCC/C=C\CCCCCCCC(=O)N(C(=O)NC1CCCCC1)C1CCCCC1 | 12.8
CCCCC/C=C\CC[C@H](O)CCCCCCCC(=O)N(C(=O)NC1CCCCC1)C1CCCCC1 | 20.6
CCCCCCCC/C=C\CCCCCCCC(=O)Nc1ccccc1O | 10.8
CCCCCCCCCCCCCCCCCC(=O)N(C(=O)NC1CCCCC1)C1CCCCC1 | 12.7
CCCCCCCCCCCCCCCC(=O)N(C(=O)NC1CCCCC1)C1CCCCC1 | 10.7
CCCCCC[C@@H](O)C/C=C\CCCCCCCC(=O)N(C(=O)NC1CCCCC1)C1CCCCC1 | 17.5

====

Tested on: Aspergillus fumigatus
test: Antifungal activity against Aspergillus fumigatus after 48 hrs by broth dilution technique
Type: functional

molecule.smiles | MFC, µg/mL
CCCCC/C=C\CC[C@H](O)CCCCCCCC(=O)N(C(=O)NC1CCCCC1)C1CCCCC1 | 25
CCCCCCCCCCCCCCCCCC(=O)Nc1ccccc1O | 50
CCCCCCCC/C=C\CCCCCCCC(=O)Nc1ccccc1O | 100
CCCCCC[C@@H](O)C/C=C\CCCCCCCC(=O)N(C(=O)NC1CCCCC1)C1CCCCC1 | 100
CCCCCCCCCCCCCCCCCC(=O)N(C(=O)NC1CCCCC1)C1CCCCC1 | 100
COC1=CC(=O)C[C@@H](C)[C@]12Oc1c(Cl)c(OC)cc(OC)c1C2=O | 12.5
CCCCCCCCCCCCCCCC(=O)N(C(=O)NC1CCCCC1)C1CCCCC1 | 100
CCCCCCCCCCCCCCCC(=O)Nc1ccccc1O | 100
CCCCC/C=C\CC[C@H](O)CCCCCCCC(=O)Nc1ccccc1O | 50
CCCCCC[C@@H](O)C/C=C\CCCCCCCC(=O)Nc1ccccc1O | 100
CCCCCCCC/C=C\CCCCCCCC(=O)N(C(=O)NC1CCCCC1)C1CCCCC1 | 100

====

Test system: Trichophyton mentagrophytes
test: Antifungal activity against Trichophyton mentagrophytes after 48 hrs by broth dilution technique
Assay type: functional
Examples of compounds with documented MIC follow.

compound | value.unit | MIC
CCCCCCCCCCCCCCCCCC(=O)N(C(=O)NC1CCCCC1)C1CCCCC1 | µg/mL | 50
CCCCC/C=C\CC[C@H](O)CCCCCCCC(=O)Nc1ccccc1O | µg/mL | 25
CCCCCCCCCCCCCCCC(=O)N(C(=O)NC1CCCCC1)C1CCCCC1 | µg/mL | 12.5
COC1=CC(=O)C[C@@H](C)[C@]12Oc1c(Cl)c(OC)cc(OC)c1C2=O [GRISEOFULVIN] | µg/mL | 6.25
CCCCCCCCCCCCCCCC(=O)Nc1ccccc1O | µg/mL | 25
CCCCCCCC/C=C\CCCCCCCC(=O)Nc1ccccc1O | µg/mL | 50
CCCCCCCCCCCCCCCCCC(=O)Nc1ccccc1O | µg/mL | 50
CCCCCC[C@@H](O)C/C=C\CCCCCCCC(=O)N(C(=O)NC1CCCCC1)C1CCCCC1 | µg/mL | 25
CCCCCC[C@@H](O)C/C=C\CCCCCCCC(=O)Nc1ccccc1O | µg/mL | 50
CCCCC/C=C\CC[C@H](O)CCCCCCCC(=O)N(C(=O)NC1CCCCC1)C1CCCCC1 | µg/mL | 12.5

====

Tested on: Trichophyton mentagrophytes
test: Antifungal activity against Trichophyton mentagrophytes after 3 to 4 days by disc diffusion method; also: test concentration or dose not given here
Format: functional
Examples of compounds with documented diameter of the inhibition zone (DIZ) follow.

molecule.smiles | system | diameter of the inhibition zone (DIZ), mm
CCCCCCCCCCCCCCCCCC(=O)N(C(=O)NC1CCCCC1)C1CCCCC1 | Trichophyton mentagrophytes | 12.2
CCCCCCCCCCCCCCCCCC(=O)Nc1ccccc1O | Trichophyton mentagrophytes | 10.5
CCCCCCCCCCCCCCCC(=O)Nc1ccccc1O | Trichophyton mentagrophytes | 9.8
C=CCCCCCCCCC(=O)Nc1ccccc1O | Trichophyton mentagrophytes | 8.3
CCCCCC[C@@H](O)C/C=C\CCCCCCCC(=O)Nc1ccccc1O | Trichophyton mentagrophytes | 10.5
CCCCCCCC/C=C\CCCCCCCC(=O)Nc1ccccc1O | Trichophyton mentagrophytes | 8.9

====

System: Pseudomonas aeruginosa
test: Antibacterial activity against Pseudomonas aeruginosa ATCC 27853 after 24 hrs by disc diffusion method; also: test concentration or dose not given here
Examples of compounds with documented diameter of the inhibition zone (DIZ) follow.

molecule.smiles | diameter of the inhibition zone (DIZ) [mm]
C=CCCCCCCCCC(=O)N(C(=O)NC1CCCCC1)C1CCCCC1 | 12.1
CCCCCCCC/C=C\CCCCCCCC(=O)Nc1ccccc1O | 15.2
CCCCCCCCCCCCCCCC(=O)Nc1ccccc1O | 11.5
CCCCCCCC/C=C\CCCCCCCC(=O)N(C(=O)NC1CCCCC1)C1CCCCC1 | 17.2
CCCCCCCCCCCCCCCCCC(=O)N(C(=O)NC1CCCCC1)C1CCCCC1 | 12.2
CCCCCC[C@@H](O)C/C=C\CCCCCCCC(=O)N(C(=O)NC1CCCCC1)C1CCCCC1 | 23.2
C=CCCCCCCCCC(=O)Nc1ccccc1O | 14.3
O=C(O)c1cn(C2CC2)c2cc(N3CCNCC3)c(F)cc2c1=O | 32
CCCCC/C=C\CC[C@H](O)CCCCCCCC(=O)Nc1ccccc1O | 23.4
CCCCC/C=C\CC[C@H](O)CCCCCCCC(=O)N(C(=O)NC1CCCCC1)C1CCCCC1 | 27.1
CCCCCC[C@@H](O)C/C=C\CCCCCCCC(=O)Nc1ccccc1O | 15.2
CCCCCCCCCCCCCCCC(=O)N(C(=O)NC1CCCCC1)C1CCCCC1 | 14.9
CCCCCCCCCCCCCCCCCC(=O)Nc1ccccc1O | 11.9

====

System: Staphylococcus aureus
test: Antibacterial activity against Staphylococcus aureus ATCC 25923 after 24 hrs by disc diffusion method; also: test concentration or dose not given here
Assay type: functional
Examples of compounds with documented diameter of the inhibition zone (DIZ) follow.
result.type: diameter of the inhibition zone (DIZ) (mm)

molecule.smiles | system | experimental.value
CCCCC/C=C\CC[C@H](O)CCCCCCCC(=O)Nc1ccccc1O | Staphylococcus aureus | 18.7
CCCCCCCCCCCCCCCCCC(=O)Nc1ccccc1O | Staphylococcus aureus | 10.5
CCCCCCCCCCCCCCCC(=O)Nc1ccccc1O | Staphylococcus aureus | 9.8
CCCCC/C=C\CC[C@H](O)CCCCCCCC(=O)N(C(=O)NC1CCCCC1)C1CCCCC1 | Staphylococcus aureus | 19.5
CCCCCC[C@@H](O)C/C=C\CCCCCCCC(=O)N(C(=O)NC1CCCCC1)C1CCCCC1 | Staphylococcus aureus | 18.5
CCCCCC[C@@H](O)C/C=C\CCCCCCCC(=O)Nc1ccccc1O | Staphylococcus aureus | 15.6
CCCCCCCCCCCCCCCCCC(=O)N(C(=O)NC1CCCCC1)C1CCCCC1 | Staphylococcus aureus | 11.3
CCCCCCCCCCCCCCCC(=O)N(C(=O)NC1CCCCC1)C1CCCCC1 | Staphylococcus aureus | 10.1
CCCCCCCC/C=C\CCCCCCCC(=O)Nc1ccccc1O | Staphylococcus aureus | 11.1
CCCCCCCC/C=C\CCCCCCCC(=O)N(C(=O)NC1CCCCC1)C1CCCCC1 | Staphylococcus aureus | 13.4
C=CCCCCCCCCC(=O)Nc1ccccc1O | Staphylococcus aureus | 10.9
O=C(O)c1cn(C2CC2)c2cc(N3CCNCC3)c(F)cc2c1=O | Staphylococcus aureus | 22
